biological target: Recombinant human GR (Homo sapiens, UniProt P04150); construct: purchased Invitrogen P2816; assay: GR competitor assay by fluorescence polarization (binding activity to glucocorticoid receptor); details: 20 μM test compound solution, 10 μL per well plus 5 μL 4×GS1 and 5 μL 4×GR; 2 to 4 hours at room temperature; ratio of 100% or more is indicated by 100%
Sequence (P04150 whole entry): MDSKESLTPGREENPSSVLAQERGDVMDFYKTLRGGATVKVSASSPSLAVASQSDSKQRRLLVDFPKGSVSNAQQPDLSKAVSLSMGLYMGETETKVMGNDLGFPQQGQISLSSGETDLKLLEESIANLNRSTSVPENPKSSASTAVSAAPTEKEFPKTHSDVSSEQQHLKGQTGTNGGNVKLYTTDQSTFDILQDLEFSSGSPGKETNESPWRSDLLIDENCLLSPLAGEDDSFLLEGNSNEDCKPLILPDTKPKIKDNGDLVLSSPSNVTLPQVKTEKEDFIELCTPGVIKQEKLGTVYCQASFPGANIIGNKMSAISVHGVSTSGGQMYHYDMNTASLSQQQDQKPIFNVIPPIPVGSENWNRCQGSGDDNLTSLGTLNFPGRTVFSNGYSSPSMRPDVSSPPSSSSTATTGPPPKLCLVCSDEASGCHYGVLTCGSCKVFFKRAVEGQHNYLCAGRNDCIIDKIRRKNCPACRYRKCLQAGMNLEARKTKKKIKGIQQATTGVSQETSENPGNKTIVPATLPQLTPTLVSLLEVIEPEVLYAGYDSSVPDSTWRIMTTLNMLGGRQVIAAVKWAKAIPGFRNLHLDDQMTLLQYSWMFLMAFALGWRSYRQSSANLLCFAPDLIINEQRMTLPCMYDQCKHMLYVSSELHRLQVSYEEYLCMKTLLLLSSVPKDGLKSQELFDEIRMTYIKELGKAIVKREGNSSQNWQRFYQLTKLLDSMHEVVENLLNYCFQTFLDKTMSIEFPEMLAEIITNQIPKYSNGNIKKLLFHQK
Readout label: inhibition at 10 µM (%)

| Molecule | Experimental value |
| --- | --- |
| COc1cc(OS(C)(=O)=O)ccc1-c1ccc2c(c1COC(=O)c1ccc(C)s1)N(C)C(=O)C(C)(C)N2 [Compound 1-6] | 100 |
| COc1ccccc1NCc1c(-c2ccc(OS(=O)(=O)c3ccccc3)cc2OC)ccc2c1N(C)C(=O)C(C)(C)N2 [Compound 2-2] | 89 |
| COc1cc(OS(=O)(=O)c2ccccc2F)ccc1-c1ccc2c(c1COc1cc(F)ccc1C)N(C)C(=O)C(C)(C)N2 [Compound 1-26] | 95 |
| COc1cc(OS(=O)(=O)C2CCCCC2)ccc1-c1ccc2c(c1COc1cc(F)ccc1C)N(C)C(=O)C(C)(C)N2 [Compound 1-30] | 92 |
| COc1cc(OS(=O)(=O)CCCNCc2ccccc2)ccc1-c1ccc2c(c1COc1cc(F)ccc1C)N(C)C(=O)C(C)(C)N2 [Compound 3-1] | 94 |
| COc1ccccc1NCc1c(-c2ccc(OS(=O)(=O)C3CC3)cc2OC)ccc2c1N(C)C(=O)C(C)(C)N2 [Compound 2-3] | 93 |
| COc1cc(OS(=O)(=O)CCC(F)(F)F)ccc1-c1ccc2c(c1COc1cc(F)ccc1C)N(C)C(=O)C(C)(C)N2 [Compound 1-22] | 91 |
| COc1cc(OS(=O)(=O)CCCN(C)CCN(C)C)ccc1-c1ccc2c(c1COc1cc(F)ccc1C)N(C)C(=O)C(C)(C)N2 [Compound 3-5] | 100 |
| CCCS(=O)(=O)Oc1ccc(-c2ccc3c(c2COc2cc(F)ccc2C)N(C)C(=O)C(C)(C)N3)c(OC)c1 [Compound 1-4] | 99 |
| COc1cc(OS(=O)(=O)C2CCCC2)ccc1-c1ccc2c(c1COc1cc([N+](=O)[O-])ccc1C)N(C)C(=O)C(C)(C)N2 [Compound 1-50] | 98 |
| COc1ccc([N+](=O)[O-])cc1OCc1c(-c2ccc(OS(=O)(=O)C3CC3)cc2OC)ccc2c1N(C)C(=O)C(C)(C)N2 [Compound 1-43] | 100 |
| COc1cc(OS(=O)(=O)C2CC2)ccc1-c1ccc2c(c1COc1cc(F)ccc1C)N(C)C(=O)C(C)(C)N2 [Compound 1-23] | 94 |
| COc1cc(OS(=O)(=O)Cc2ccccc2C)ccc1-c1ccc2c(c1COc1cc(F)ccc1C)N(C)C(=O)C(C)(C)N2 [Compound 1-28] | 91 |

###

biological target: Recombinant human GR (Homo sapiens); construct: purchased Invitrogen P2816; assay: GR competitor assay by fluorescence polarization (binding activity to glucocorticoid receptor); settings: 20 μM test compound solution, 10 μL per well plus 5 μL 4×GS1 and 5 μL 4×GR; 2 to 4 hours at room temperature; ratio of 100% or more is indicated by 100%
Readout label: inhibition at 10 µM (%)

| Molecule | Scale unit | Experimental value |
| --- | --- | --- |
| COc1cc(OS(=O)(=O)c2ccccc2C)ccc1-c1ccc2c(c1COc1cc(F)ccc1C)N(C)C(=O)C(C)(C)N2 [Compound 1-11] | % | 83 |
| COc1cc(OS(=O)(=O)CCC(F)(F)F)ccc1-c1ccc2c(c1COc1cc([N+](=O)[O-])ccc1C)N(C)C(=O)C(C)(C)N2 [Compound 1-46] | % | 95 |
| COc1cc(OS(=O)(=O)c2ccccc2)ccc1-c1ccc2c(c1COC(=O)c1ccc(C)s1)N(C)C(=O)C(C)(C)N2 [Compound 1-7] | % | 86 |
